testTarget: LNK SH2 domain (Mus musculus, UniProt O09039)
Construct: DNA encoding the mouse LNK SH2 domain (residues 324–446) and an N-terminal NusA; NusA (N, cleaved yes); made in house; host or cells: E. coli (tuner (DE3), BL21(DE3) or C43)
Sequence (O09039 324-446): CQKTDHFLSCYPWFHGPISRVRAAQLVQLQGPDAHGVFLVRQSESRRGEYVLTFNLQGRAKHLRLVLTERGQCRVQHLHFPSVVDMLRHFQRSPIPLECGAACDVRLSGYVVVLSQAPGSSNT
assayProcedure: SPR competition assay (immobilised IL6ST pY757 peptide)
Assay type: binding
experimentalConditions: phosphopeptide competition assay; mean of at least two technical replicates from two, three or four independent experiments; read-out: IC50
pIC50: −log10 of the molar value. Where a SMILES comes first, the peptide text is derived from it. [ ]: non-standard residue; d: D form. pY = N[C@@H](Cc1ccc(OP(=O)(O)O)cc1)C(=O)O
endpoint: pIC50

Determine from records and report pIC50 for CC(C)C[C@H](NC(=O)[C@H](CS)NC(=O)CNC(=O)[C@H](CC(N)=O)NC(=O)[C@H](CCC(N)=O)NC(=O)[C@H](Cc1ccc(OP(=O)(O)O)cc1)NC(=O)[C@H](CC(C)C)NC(=O)[C@H](Cc1c[nH]c2ccccc12)NC(=O)[C@H](CC(C)C)NC(=O)[C@@H](N)CCC(N)=O)C(=O)N[C@@H](Cc1c[nH]c2ccccc12)C(=O)N[C@@H](Cc1c[nH]c2ccccc12)C(=O)O [EPOR pY309] (H-QLWL[pY]QNGCLWW-OH; N-terminus and C-terminus assumed)
< 5.00
